Test system: MS2 coat protein
Assay: apparent KD of MS2 coat protein; designed switch direction (-1 OFF switch, 1 ON switch): 1; higher = weaker reporter binding
Conditions: input ligand: FMN 200 uM
apparent KD of MS2 coat protein values for the sequences below.

Request: Provide only the value of recorded apparent KD of MS2 coat protein for UCUGCAAUUAACGCCUACAUGAGGAUCACCCAUGUAUGUAGGCAGGAUAUCGUUUGCUUUGCAAACGAGAAGGGCUGUAGUAGC [salish99_SSNG3_R04_001] (Eterna round: R96, puzzle: Same State NG 3)
Response: 52.4 nM

Request: Provide only the value of recorded apparent KD of MS2 coat protein for GAGGGACAGACCAACAUGAGGAUCACCCAUGUCCUCGCAGUUCAGGAUAUCUGGAGGAAGAAGAAAGAGAAGGGAAGGUGAACC [AK SSNG3-V2-35] (Eterna round: R96, puzzle: Same State NG 3)
Response: 312 nM

Request: Provide only the value of recorded apparent KD of MS2 coat protein for AUGAAGAAUUAAGGAUAUUGAUUACAUAUGUUUAACAUGAGGAUCACCCAUGUGGGUUGCGGUAUCGAGAAGGUAAAAUAAAAG [Mat - same State NG 2 - JL mod - D89] (Eterna round: R96, puzzle: Same State NG 2)
Response: 252 nM

----------
Test system: K4 kissing-loop RNA reporter
Experiment: apparent KD of K4 kissing-loop reporter; higher = weaker reporter binding
Details: Eterna round: R107; input ligand: tryptophan 2.4 mM
apparent KD of K4 kissing-loop reporter values for the sequences below.
Please respond with the number in µM and leave the unit unwritten.

Here's what some known entries look like.
ACCAUCAAAGAUGGCCAGGACACCGCUGAUACCAGAGUGAAAACACUCCCUUGGCAGCAGGUGAGUGAUGUUCACAGUCCAUGGA [Omel KL Theo A SS B v2]	0.361
AAGUGUGUGGCGGCCGCCACUAGAAUCCAGUGAUGUUGGAGAUAUCACGUAAGUGAUAUCCACCAUAGGACCGGGCCAUAUAGAA [Same State - Tryptophan B (Freestyle 13)]	0.483

Query sequence follows.
Request: Provide only the value of recorded apparent KD of K4 kissing-loop reporter for GAUUACAACAGAGUGAUGUUCUGACUUUCUCGAGGACCGGUACGGCCGCCACUCGUUAAACAAAGUGGUUUGCCAAGGCCAACUU
Response: 0.111

----------
Tested on: MS2 coat protein
Experiment: apparent KD of MS2 coat protein; designed switch direction (-1 OFF switch, 1 ON switch): 1; higher = weaker reporter binding
Settings: input ligand: microRNA oligo, concentration not stated
Reported endpoint: apparent KD of MS2 coat protein

Here's what some known entries look like.
AUAAAACAUGAGGAUCACCCAUGUAGACGGAGAAACGUCACAUAGGAUAUAGUCAGCGGCGUUGACUAGAAGGGUGGUAGAAAA [Qubeedbi] (Eterna round: R96, puzzle: Same State NG 3)	0.0974 µM
UGGUACAUGGGAGGAUAUCUCAUGGAGACAUGAGGAUCACCCAUGUAGAUGGGCGGUAACGCCGGAGAGAAGGCCCAUGUACCU [JL SSNG1 3.70] (Eterna round: R96, puzzle: Same State NG 2)	0.0416 µM
AACAGUCGGCGAGGAUAUGGACGUACGGACUAACCCAUACGGCUCACAUGAGGAUCACCCAUGUUCUAGAAGGCGCCACUGAAA [Soisce] (Eterna round: R96, puzzle: Same State NG 2)	0.0228 µM

Query sequence follows.
Request: Provide only the value of recorded apparent KD of MS2 coat protein for AAGAAACAUGAGGAUCACCCAUGUCGAGAGAGACGAGGAUAUCUGAAUCGAUUAGAUUACGGAGAAGGCGUGAAAA [Same State 1.2 (Same State of Confusion2 - minimal change )] (Eterna round: R96, puzzle: Same State 1)
Response: 0.022 µM

----------
Tested on: MS2 coat protein
Assay: apparent KD of MS2 coat protein; designed switch direction (-1 OFF switch, 1 ON switch): -1; higher = weaker reporter binding
Details: input ligand: microRNA oligo, concentration not stated
Reported endpoint: apparent KD of MS2 coat protein
Kindly report the value followed by its unit.

CGGUGUAACGUAGGAUAUCAGCGCAACUGACGAUGAGAAGGACGACAUGAGGAUCACCCAUGUGAUUUCUCAAUAUUAUACAUC [Prohibition 87 - Jieux - Exclusion NG 1] (Eterna round: R96, puzzle: Exclusion NG 1)	58.9 nM
ACAGUUCUGCAAGGAUAUCGUCCUAGUUUGUUUCGAGAAGGUGCUUUAGUUUAUUCCUUUUGUUUACAUGAGGAUCACCCAUGU [JR_ExcNG1_Sub050] (Eterna round: R96, puzzle: Exclusion NG 1)	18 nM
CUGCUCCGUGUAGGAUAUGCAUACCACCACUAUGCAGAAGGACAUGAGGAUCACCCAUGUAUGUUAUUAUCACGUGAAGCGUCC [Design 19] (Eterna round: R96, puzzle: Exclusion NG 1)	18.1 nM

Request: Provide only the value of recorded apparent KD of MS2 coat protein for CUAAAUCAUGUAGGAUAUGCGUGGCAAAGCUAUGCAGAAGGACAUGAGGAUCACCCAUGUCAUUCCGUCUGCGUACAGACGGGA [Mat - Exclusion NG 1 - Mod of JL - D49] (Eterna round: R96, puzzle: Exclusion NG 1)
Response: 19.9 nM

----------
System: K4 kissing-loop RNA reporter;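 further: bound reporter read as fluorescence of individual clusters on recovered sequencing chips by microscopy, with normalized cluster intensities fitted with a binding model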
Assay: apparent KD of K4 kissing-loop reporter; higher = weaker reporter binding
Conditions: Eterna round: R107; input ligand: FMN 200 uM
Reported endpoint: apparent KD of K4 kissing-loop reporter (nM)
Please respond with the number in nM and leave the unit unwritten.

Here's what some known entries look like.
AUAUUUAUUUAGUCACUUUUCAUAUUAUGUCAGGAUAUCGUAUUUUCGAGAAGGGACUCAUGGUAGUGAUGUUACCUAUUUCUCA [#03 K4 FMN A Exclusion]	196
AAGUGUUCUAGUGAUACCAGACAUUUCAAUUACAUUAAUAUAGCUAAGUGAUGUUUAGCAGUCCCUUGGCAGCACUAUUUCACUA [JR_SSTheophyB_Sub016]	130
GGGUCUGCGCGAAGGAGCGCCCUGACAGGUUGCUGCCGUGGGCAGUGAUGUUGCUCAGUCCGGCAGGUAGGUCGCGUGCAGACCC	135
AUGGUAUUGCGAGGAUAUCCUUCCCACGUCGAAGUACCGUGCUUGAUGGAGUGAUGUUCGAUCAGAGGAGAAGGCGCGGUGUUAU [Same State FMN B GF22]	706
UAUUUAAUGUCAGGAUAUCGUAUACGAGUGAUGUUCGUAUUUCUACUAUAGAUUAUUUAAAUUUUUCGAGAAGGGACAAUAUUUA [KL-SSFMN-B4]	177
UACAGGGCGAGUGAUGUUUGCUCAUGUGAUACCAGUGCCAUCCAACACCCUUGGCAGCAUGCGGGCAGUGAUGUUGUCCUUGGUU [Exclusion Theophylline A GF11]	294

Request: Provide only the value of recorded apparent KD of K4 kissing-loop reporter for AGUAUAGAGUCGGCCGCCACUGGUUUUAUGUGUGUCAAAUCUGGAUCAAAGUGAUGUUUUGAGACUAGGACCGGGACCAUUGUUA [#06 K4 Tryptophan B Exclusion]
Response: 160

Request: Provide only the value of recorded apparent KD of K4 kissing-loop reporter for CGGAUGUAGUGAUGUUAUAUAAGAAGUAGACGAGGACCGGUACGGCCGCCACUCGAAACGGCUACUAGCGCGUUGCGAGGUGUGC [ExTryptoA.Ch]
Response: 651

Request: Provide only the value of recorded apparent KD of K4 kissing-loop reporter for UGAUACCAGACGGCCGCCACUCCCGUAAGUCAAAGACUUACGAAGAGAGUCGUCCAGUGAUGUUGGAGGACCGGGUCUGGUAUCU [FiskerMod 12 - Jieux - Exclusion - Tryptophan B]
Response: 179

Request: Provide only the value of recorded apparent KD of K4 kissing-loop reporter for CUAUGGAAACAUAGUGAGCGGGAAACCGAUACCAGUAUGGAAACAUACCCUUGGCAGCGGAAUGCUCAAACGGAGUGAUGUUCCG [Theophylline A K4 22]
Response: 265

Request: Provide only the value of recorded apparent KD of K4 kissing-loop reporter for UGCGCUGCCUGAGGAUAUAGAAACGAGUGAUGUUCGUGGAUAAGAGCCAGUGAUGUUGGGUUAUUUCUAGAAGGCAGGCAAAGUA [Exclusion FMN B GF7]
Response: 108

Request: Provide only the value of recorded apparent KD of K4 kissing-loop reporter for GGCGUCAAACCAGAACUAGUGAUGUUGGUUCGAGGACCGGUACGGCCGCCACUCGAUCUCUUGGUCCAUCGCGGAAGGGCAGCGG [theeternabot_exclusion_KL_Trp_A_29]
Response: 511

----------
apparent KD of MS2 coat protein values for the sequences below.
Test system: MS2 coat protein
Experiment: apparent KD of MS2 coat protein; designed switch direction (-1 OFF switch, 1 ON switch): 1; higher = weaker reporter binding
Settings: input ligand: none
Please respond with the number in nM and leave the unit unwritten.

Here's what some known entries look like.
UAAAGAAAGCGAGGAUAUAGCCCAUGUGAAGAACUAGAAGGCGCAGACAUGAGGAUCACCCAUGUGUUCAUGAGGAGGAGGACA [Kawasakiqro] (Eterna round: R96, puzzle: Same State NG 1)	57.7
ACAUGAAAUUUAGGAUAUUUUGUACCUACAUGUGACAUGAGGAUCACCCAUGUGGUAAGUAUGAGAAAGAAGGAAAAGAUAUGU [Equivalence 9 - Jieux - Same State NG 2] (Eterna round: R96, puzzle: Same State NG 2)	70.9
GCCGCGUUUCGCGCCUACAUGAGGAUCACCCAUGUUUGUAGGCAGGAUAUCGCUCGCUUUGCGGGCGAGAAGGGCUGUUGUGGC [salish99_SSNG3_R04_019] (Eterna round: R96, puzzle: Same State NG 3)	54.4

Request: Provide only the value of recorded apparent KD of MS2 coat protein for GGUCUAGUUACAGGAUAUGCAUUGCUUUGCGAUGCAGAAGGGUGGUAACAUGAGGAUCACCCAUGUGGGCCAGCGCAAAAGCGC [JL SSNG1 cdp] (Eterna round: R96, puzzle: Same State NG 1)
Response: 1440

Request: Provide only the value of recorded apparent KD of MS2 coat protein for GUUACAUGAGGAUCACCCAUGUAUGUGUGGGAGUAAGUGUCUUAGGAUAUCUAUGAUUUAAUUCAAGAGAAGGAAGAUUGUUGU [JMF's solution 85] (Eterna round: R96, puzzle: Same State NG 3)
Response: 79.5

Request: Provide only the value of recorded apparent KD of MS2 coat protein for GCUCGACGUAUGGCCUACAUGAGGAUCACCCAUGUGAUUGGGCAGGAUAUCUAGAUGCAGGAUGUAGAGAAGGGCCCGUCGAGC [SameState NG3 #47] (Eterna round: R96, puzzle: Same State NG 3)
Response: 230
